Quick reference for TGI among some molecules
Test system: EKVX NSCLC
assay.name: NCI tumour cell line growth inhibition, 48 h

In [3]: df
Out[3]:
                                   molecule  reported
0  Oc1c(I)cc(I)cc1CNCCN(Cc1ccccn1)Cc1ccccn1   2.11 µM
1  O=C(OCc1nc2nc(Cl)nc(N3CCOCC3)c2[nH]1)n1ccnc1   4.66 µM

In: // fetch TGI given entry COC(=O)/C(=N/NC(N)=O)C(C(=O)C(=O)Nc1ccc(C)cc1)c1nc2ccc(C(=O)c3ccccc3)cc2[nH]c1=O (configuration not stated)
Out: > 100 µM

In: // fetch TGI given entry `CC(=O)c1c2c(cc3c1CC1(Cc4cc5c(cc4C1)CCCC5)C3)CCCC2`
Out: > 100 µM

In: // fetch TGI given entry `CC(C)c1cc2c(c(O)c1O)[C@@]1(C)CCCC(C)(C)C1=C(O)C2`
Out: 3.56 µM

In: // fetch TGI given entry `Clc1ccc2c(NCCNC3CCCCC3)ccnc2c1`
Out: 15.7 µM

In: // fetch TGI given entry COc1ccc2c(c1)OCCCN(C)OC2c1ccccc1 (configuration not stated)
Out: > 100 µM

----------
Quick reference for log10(TGI) among some compounds
Tested on: HOP-92 NSCLC
assay.name: NCI tumour cell line growth inhibition, 48 h
// do not treat as linear: log10 of TGI, unit µM

See these solved cases before continuing.
>>> df
                           structure_smiles  reported
0  O=C(CSc1nnc(-c2ccccn2)s1)N/N=C/c1ccc([N+](=O)[O-])cc1      1.63
1  Oc1c(I)cc(I)cc1CNCCN(Cc1ccccn1)Cc1ccccn1      0.49
2  O=C(NCCCN1CCC(N2CCCCC2)CC1)C1=Cc2cc(Br)ccc2OC1      1.30

In: // fetch log10(TGI) given entry `N#CSCc1nc2ccc(Cl)cc2c(-c2ccccc2)[n+]1[O-]`
Out: 1.54

In: // fetch log10(TGI) given entry `CSc1nc(N)cc(Oc2ccc(-c3nc(Nc4cccc(C(F)(F)F)c4)n[nH]3)cc2)n1`
Out: 0.78

In: // fetch log10(TGI) given entry `O=C1C(NCCF)=C(Cl)C(=O)c2ncccc21`
Out: 0.56

In: // fetch log10(TGI) given entry `Cc1ncc(C(=O)Nc2ccc(CN3CCN(C)CC3)c(C(F)(F)F)c2)cc1C#Cc1c(N)ncc2ccc(F)cc12`
Out: -0.33

----------
System: A549 NSCLC
assay.name: NCI tumour cell line growth inhibition, 48 h
experimental.readout: TGI

See these solved cases before continuing.
>>> print(df.to_string())
                                   compound  experimental_readout  reported
0    Cc1cc2c(=O)cc(-c3cccs3)oc2c(C(=O)O)c1C                   TGI  > 100 µM
1  CC(C)(C)OC(=O)N1CC(O)O[C@H](c2ccccc2)[C@@H]1c1ccccc1 (stereo partly drawn)                   TGI   39.5 µM

Okay, now this compound:
In: // fetch TGI given entry `COc1cc(C)cc2c1[nH]c1ccccc12`
Out: > 25 µM

----------
Quick reference for TGI among some molecules
Test system: LXFL 529 NSCLC
assay.name: NCI tumour cell line growth inhibition, 48 h

See these solved cases before continuing.
                                   molecule  reported
0  C=C1CCC(OC(C)=O)C2(C)C(OC(C)=O)CC3OC3(C)C2C(OC(C)=O)C2C(C)C(=O)OC2C1Cl (centres undefined)  > 100 µM
1  Cc1nc(-c2nc(C)c(C(=O)/C=C/c3ccc([N+](=O)[O-])cc3)s2)sc1C(=O)/C=C/c1ccc([N+](=O)[O-])cc1  > 100 µM
2  O=C(Nc1ccc2[nH]c3c(-c4ccccc4)nccc3c2c1)c1ccccc1[N+](=O)[O-]   47.2 µM

Okay, now this molecule:
In: // fetch TGI given entry CC1(C(=O)Nc2ccc3cc4ccccc4cc3c2)CC2(C)CC(C)(C1)C(O)NC2=O (centres undefined)
Out: > 100 µM
